System: MOLT-4 leukemia
Assay: NCI tumour cell line growth inhibition, 48 h; in the data active means GI50 below about 0.43 µM; inactive means the rest
Give your call using only these classes: YES (active), NO (inactive)

compound | class_label
CN1CC=C(c2cc(NC(=O)Nc3ccc(Oc4ccnc(NC(=O)C5CC5)c4)c(F)c3)cc(C(F)(F)F)c2)CC1 | YES
CC1=C/C=C/C(=O)O[C@@H]([C@H](C)[C@H](O)[C@@H](C)NC(=O)C(C)C)[C@H](C)/C=C/C(C)=C/[C@H]2C=CCC[C@@]2(C)\C=C\1 | NO
Cc1ccc(C)c2c1C(=O)N(c1ccc(F)cc1F)C2=O | NO

In: Test call, this compound: CCCCCCC1N=C(N)N=C(N)N1c1cccc(Cl)c1 (centres undefined)
Out: NO

---

// values below are reported TGI
Tested on: HCT-15 colon
Assay: NCI tumour cell line growth inhibition, 48 h

compound | recorded_measurement
Oc1c(CN2CCCC2)ccc2cccnc12 | > 41.2 µM

In: Query for HCT-15 colon: what TGI does the record show for Cn1cnc(N2CCCC2)c(C#N)c1=S ?
Out: > 100 µM

In: Query for HCT-15 colon: what TGI does the record show for Cc1ccc(-c2nc3nc(-c4ccc(F)cc4)nc(N4CCNCC4)c3o2)cc1 ?
Out: 3.38 µM

---

Test system: CCRF-CEM leukemia
Test: NCI tumour cell line growth inhibition, 48 h
experimental_endpoint: TGI

See these solved cases before continuing.
molecule | TGI
COc1cccc2c1OC1Sc3ccccc3-c3nn(-c4ccccc4)c-2c31 (stereo not given) | > 100 µM
CNC(=O)c1nn(C)c2c1C(C)(C)Cc1cnc(Nc3cccc(N4CCN(C)CC4)c3)nc1-2 | > 26.8 µM
CCOC(=O)c1c(NS(=O)(=O)c2ccc(C)cc2)sc2c1CCCC2 | > 100 µM
Cc1nn(C(=O)c2ccccc2O)c2c1C(c1ccc(O)cc1O)SC(N)=N2 (stereo not given) | > 10 µM

In: Query for CCRF-CEM leukemia: what TGI does the record show for CC(C)(C)COC(=O)C(C)(C)NC(=O)C(CC(=O)OCc1ccccc1)NC(=O)OCc1ccccc1 (stereo not given) ?
Out: > 100 µM

---

Tested on: U251 CNS
Assay: NCI tumour cell line growth inhibition, 48 h
experimental_endpoint: TGI (µM)
Numbers only; they are read as µM.

compound | assay_system | readout_unit | TGI
Cc1c(Cc2ccccc2)n(C(C)OCCN(OC(=O)Oc2ccccc2)C(=O)Oc2ccccc2)c(=O)[nH]c1=O (stereo not given) | U251 CNS | µM | 38.3
COC(=O)c1ccc2nc(-c3cc4ccccc4n3C)n(CCCCOc3cc4c(cc3OC)C(=O)N3CCC[C@H]3C=N4)c2c1 | U251 CNS | µM | 2.08
Cn1c2ccc(F)cc2c2ccc3c(c21)C(=O)C=CC3=O | U251 CNS | µM | 23.9

Then there is this compound:
In: Which TGI is reported for this compound? CC1(C)CC(=O)C=C(/C=C/Sc2c(Cl)c(Cl)nc(Cl)c2Cl)C1
Out: 28.5

---

Tested on: SNB-19 CNS
Assay: NCI tumour cell line growth inhibition, 48 h
experimental_endpoint: TGI

See these solved cases before continuing.
molecule | assay_system | experimental_endpoint | recorded_measurement
Cc1c(Cc2ccccc2)n(C(C)OCCN(OC(=O)Oc2ccccc2)C(=O)Oc2ccccc2)c(=O)[nH]c1=O (centres undefined) | SNB-19 CNS | TGI | > 100 µM
CN(C)Cc1c(O)ccc2c1c1c(n2C)C(=O)c2ccccc2C1=O | SNB-19 CNS | TGI | > 100 µM
COc1cccc(C=O)c1C(=O)c1cc(O)ccc1O | SNB-19 CNS | TGI | > 100 µM

In: Which TGI is reported for this molecule? COC1/C=C/C=C(/C)Cc2cc(O)c(Cl)c(c2)N(C)C(=O)CC(OC(=O)C(C)C)C2(C)OC2C(C)C2CC1(O)NC(=O)O2 (centres undefined)
Out: > 100 µM

In: Which TGI is reported for this molecule? CC(c1cc(Cl)ccc1O)c1cc(Cl)ccc1O
Out: 22.4 µM

In: Which TGI is reported for this molecule? CC1CCCC(C(=O)CC2CC(=O)NC(=O)C2)C1=O (centres undefined)
Out: > 100 µM
